System: 9L tumors
Assay: Dynamic small animal PET imaging in rats bearing 9L tumors
Assay type: in vivo, Fisher rats
Conditions: PET time-activity curves, 9L tumors
outcome.measure: time to maximum tumor uptake

Observe how each entry below is paired with its result.
                                   compound               outcome_measure  reported_measurement
0  CC(=O)N[C@@H](Cc1ccc(OCC[18F])cc1)C(=O)O [AcFET ([^18F]4)]  time to maximum tumor uptake                60 min
1  N[C@@H](Cc1ccc(OCC[18F])cc1)C(=O)O [FET ([^18F]1), O-(2-[^18F]fluoroethyl)-L-tyrosine, reference compound]  time to maximum tumor uptake              ≤ 20 min
2  C[C@H](NC(=O)[C@@H](N)Cc1ccc(OCC[18F])cc1)C(=O)O [FET-Ala ([^18F]3)]  time to maximum tumor uptake              ≤ 20 min

Moving on to the next compound.
Bench note: what time to maximum tumor uptake did N[C@@H](Cc1ccc(OCC[18F])cc1)C(=O)NCC(=O)O [FET-Gly ([^18F]2)] show?
≤ 20 min
